assay: Tolerability in Balb/c mice, body and organ weights (Example 11); format: in vivo; conditions: 50 mg/kg subcutaneously twice a week for four weeks, end of study
Strand notation (5' to 3'): a small letter for the sugar, then the base; units joined by * are phosphorothioate-linked, units joined directly phosphodiester-linked; [ ] holds rarer units or linkages, { } end groups; capitals alone tell only the bases. k = constrained ethyl (cEt); [5mC] = 5-methylcytosine; d = 2'-deoxy (DNA)
Readings of body weight for the listed substances
measurement.kind: body weight (g)

substance: 716455 (antisense kG*kT*kT*dA*dT*dG*dT*dT*dT*dG*dG*dG*dT*kG*kT*kG) [compound 716455]
measured.value: 21
--
substance: 716454 (antisense k[5mC]*kG*kA*dG*dA*dT*dT*dT*dA*dA*dA*dT*dA*kA*kG*kG) [compound 716454]
measured.value: 25
--
substance: 715483 (k[5mC]*kT*k[5mC]*dT*dT*dT*dG*dG*dA*dA*dA*d[5mC]*d[5mC]*kA*kT*kT) [compound 715483]
measured.value: 25

----------
test system: Yap1 mRNA; test: Dose-dependent inhibition of human Yap1 in SNU-449 cells (Example 9, RTS36584); assay type: cell-based; settings: 31.3 nM, free uptake, approximately 48 hours
Strand notation (5' to 3'): a small letter for the sugar, then the base; units joined by * are phosphorothioate-linked, units joined directly phosphodiester-linked; [ ] holds rarer units or linkages, { } end groups; capitals alone tell only the bases. e = 2'-O-(2-methoxyethyl) (MOE); k = constrained ethyl (cEt); [5mC] = 5-methylcytosine; d = 2'-deoxy (DNA)
Readings of % UTC (Yap1 mRNA) for the listed substances
measurement.kind: % UTC (Yap1 mRNA) (% UTC)

substance: 1198641 (kA*kT*dT*dA*dG*dA*dG*dT*dA*dT*dG*dT*kG*eG*k[5mC]*eA; antisense) [compound 1198641]
test.target: Yap1 mRNA
measurement.kind: % UTC (Yap1 mRNA)
value.unit: % UTC
measured.value: 55

substance: 1198673 (kG*kA*dT*dT*dT*dA*dG*dG*dA*dT*dG*d[5mC]*kA*eT*kG*eG; antisense) [compound 1198673]
test.target: Yap1 mRNA
measurement.kind: % UTC (Yap1 mRNA)
value.unit: % UTC
measured.value: 51

substance: 1198960 (kA*kA*dG*dT*dG*dT*dA*dT*dG*dT*d[5mC]*kA*dG*kA*dA*kG; antisense) [compound 1198960]
test.target: Yap1 mRNA
measurement.kind: % UTC (Yap1 mRNA)
value.unit: % UTC
measured.value: 77

substance: 1198546 (kG*kA*kA*dA*dT*dT*dG*dT*d[5mC]*dT*d[5mC]*dA*kT*kG*k[5mC]*e[5mC]) [compound 1198546]
test.target: Yap1 mRNA
measurement.kind: % UTC (Yap1 mRNA)
value.unit: % UTC
measured.value: 70

substance: 1198557 (kA*kT*kA*dT*dT*dA*dG*dA*dG*dT*dA*dT*kG*kT*kG*eG; antisense) [compound 1198557]
test.target: Yap1 mRNA
measurement.kind: % UTC (Yap1 mRNA)
value.unit: % UTC
measured.value: 81

substance: 1198380 (kA*dG*dA*dG*dT*dA*dT*dG*dT*dG*dG*k[5mC]*eA*kA*eT*kA; antisense) [compound 1198380]
test.target: Yap1 mRNA
measurement.kind: % UTC (Yap1 mRNA)
value.unit: % UTC
measured.value: 72

substance: 1198904 (kT*kA*dT*dT*dA*dG*dA*dG*dT*dA*dT*kG*dT*kG*dG*k[5mC]; antisense) [compound 1198904]
test.target: Yap1 mRNA
measurement.kind: % UTC (Yap1 mRNA)
value.unit: % UTC
measured.value: 78

substance: 1198786 (kT*eG*kT*dA*dT*dG*dT*d[5mC]*dA*dG*dA*dA*eG*eA*kG*kT) [compound 1198786]
test.target: Yap1 mRNA
measurement.kind: % UTC (Yap1 mRNA)
value.unit: % UTC
measured.value: 63

substance: 1198202 (kG*kA*dA*dA*dT*dT*dG*dT*d[5mC]*dT*d[5mC]*eA*eT*eG*k[5mC]*k[5mC]; antisense) [compound 1198202]
test.target: Yap1 mRNA
measurement.kind: % UTC (Yap1 mRNA)
value.unit: % UTC
measured.value: 83

substance: 1198290 (kT*kG*kG*dA*dA*dA*dT*dT*dG*dT*d[5mC]*dT*k[5mC]*eA*kT*eG; antisense) [compound 1198290]
test.target: Yap1 mRNA
measurement.kind: % UTC (Yap1 mRNA)
value.unit: % UTC
measured.value: 60

substance: 1198552 (kA*kG*kA*dG*dT*dA*dT*dG*dT*dG*dG*d[5mC]*kA*kA*kT*eA; antisense) [compound 1198552]
test.target: Yap1 mRNA
measurement.kind: % UTC (Yap1 mRNA)
value.unit: % UTC
measured.value: 72

substance: 1198570 (kG*k[5mC]*kA*d[5mC]*dT*dT*dT*dT*dA*d[5mC]*dA*dT*kT*kA*kG*eG) [compound 1198570]
test.target: Yap1 mRNA
measurement.kind: % UTC (Yap1 mRNA)
value.unit: % UTC
measured.value: 58

substance: 1198528 (kT*kA*dA*dA*dG*dT*dG*dT*dA*dT*dG*eT*k[5mC]*eA*kG*eA; antisense) [compound 1198528]
test.target: Yap1 mRNA
measurement.kind: % UTC (Yap1 mRNA)
value.unit: % UTC
measured.value: 87

----------
test system: Yap1 mRNA; assay: Dose-dependent inhibition of human Yap1 in A-431 cells (Example 8, 10,000 cells per well, RTS4814); type: cell-based; conditions: 500.0 nM; A-431 cells, 10,000 cells per well, free uptake, approximately 48 hours, RTS4814
Strand notation (5' to 3'): a small letter for the sugar, then the base; units joined by * are phosphorothioate-linked, units joined directly phosphodiester-linked; [ ] holds rarer units or linkages, { } end groups; capitals alone tell only the bases. k = constrained ethyl (cEt); [5mC] = 5-methylcytosine; d = 2'-deoxy (DNA)
measurement.kind: Yap1 mRNA, % UTC (% UTC)

substance: 1074480 (kT*k[5mC]*kA*dT*dT*dT*dG*d[5mC]*d[5mC]*dT*dA*dG*dG*kT*kT*k[5mC]; antisense) [compound 1074480]
measured.value: 5
--
substance: 1074795 (k[5mC]*k[5mC]*kA*dA*dA*dT*d[5mC]*dA*dA*dT*dG*dT*dG*k[5mC]*kT*k[5mC]; antisense) [compound 1074795]
measured.value: 7
--
substance: 1075041 (antisense kG*kA*kT*dT*dA*dT*dA*dA*dA*dG*dA*dG*dG*k[5mC]*kT*k[5mC]) [compound 1075041]
measured.value: 11
--
substance: 1074597 (DNA kA*kG*kT*dA*dT*dT*d[5mC]*dT*dA*dT*d[5mC]*d[5mC]*dA*kG*kG*kG; antisense) [compound 1074597]
measured.value: 8
--
substance: 1076494 (k[5mC]*kT*kA*dA*dT*dT*dG*dA*dA*dG*d[5mC]*dT*dG*kG*k[5mC]*kA; antisense) [compound 1076494]
measured.value: 3
--
substance: 1075749 (kA*kA*kT*dT*dA*dT*dG*dA*dA*dT*dG*dA*dT*kG*kG*kG; antisense) [compound 1075749]
measured.value: 7
--
substance: 1074579 (DNA k[5mC]*k[5mC]*kA*d[5mC]*dT*dA*dT*dA*dA*dA*dG*d[5mC]*dT*kT*kA*kT) [compound 1074579]
measured.value: 8

----------
test system: Yap1 mRNA; experiment: Dose-dependent inhibition of human Yap1 in A-431 cells (Example 6, 5,000 cells per well, RTS4814); format: cell-based; details: Table 53; A-431 cells, free uptake, 4000 nM, approximately 48 hours, RTS4814
Strand notation (5' to 3'): a small letter for the sugar, then the base; units joined by * are phosphorothioate-linked, units joined directly phosphodiester-linked; [ ] holds rarer units or linkages, { } end groups; capitals alone tell only the bases. k = constrained ethyl (cEt); [5mC] = 5-methylcytosine; d = 2'-deoxy (DNA)
Readings of % UTC 4000 nM for the listed substances

substance: 715501 (kA*kA*kA*dA*dG*d[5mC]*d[5mC]*dT*dT*dA*dG*dA*dG*kT*k[5mC]*kA; antisense) [compound 715501]
test.target: Yap1 mRNA
% UTC 4000 nM, % UTC: 56
//
substance: 715487 (kA*kT*kT*dA*d[5mC]*dT*dT*d[5mC]*dA*dT*dA*dG*d[5mC]*kT*kT*kA) [compound 715487]
test.target: Yap1 mRNA
% UTC 4000 nM, % UTC: 29
//
substance: 715480 (kG*kG*kA*dA*dA*d[5mC]*d[5mC]*dA*dT*dT*dA*dT*dT*kA*k[5mC]*kT; antisense) [compound 715480]
test.target: Yap1 mRNA
% UTC 4000 nM, % UTC: 59
//
substance: 715486 (kT*kA*k[5mC]*dT*dT*d[5mC]*dA*dT*dA*dG*d[5mC]*dT*dT*kA*kT*kA; antisense) [compound 715486]
test.target: Yap1 mRNA
% UTC 4000 nM, % UTC: 56
//
substance: 715500 (kA*kA*kG*d[5mC]*d[5mC]*dT*dT*dA*dG*dA*dG*dT*d[5mC]*kA*kA*kT; antisense) [compound 715500]
test.target: Yap1 mRNA
% UTC 4000 nM, % UTC: 48
//
substance: 715434 (kT*k[5mC]*kT*dT*dG*dT*dT*d[5mC]*dT*dT*dA*dT*dG*kG*kT*kT; antisense) [compound 715434]
test.target: Yap1 mRNA
% UTC 4000 nM, % UTC: 43
//
substance: 715478 (kA*k[5mC]*k[5mC]*dA*dT*dT*dA*dT*dT*dA*d[5mC]*dT*d[5mC]*k[5mC]*kT*kG; antisense) [compound 715478]
test.target: Yap1 mRNA
% UTC 4000 nM, % UTC: 16
//
substance: 715577 (kG*k[5mC]*kA*dT*dT*d[5mC]*dA*d[5mC]*dA*dG*dA*dG*dT*kT*kA*kA; antisense) [compound 715577]
test.target: Yap1 mRNA
% UTC 4000 nM, % UTC: 45
//
substance: 715473 (kT*k[5mC]*kT*dT*dT*dA*dT*d[5mC]*dT*dA*dG*d[5mC]*dT*kT*kG*kG; antisense) [compound 715473]
test.target: Yap1 mRNA
% UTC 4000 nM, % UTC: 30
